- System: 786-O
- PROTOCOL_NOTES: minimum viability across doses, drug + dasatinib, relative to DMSO (fraction); higher = less growth inhibition
- CONDITIONS: treatment: drug + dasatinib (fixed dose, not stated); 5 days
Could you please mark class 1 for values of minimum viability across doses below 0.004 and class 0 for values at or above it?

MOLECULE | ASSIGNED_LABEL
O=c1sn(-c2cccc3ccccc23)c(=O)n1Cc1ccccc1 [Tideglusib] + Cc1nc(Nc2ncc(C(=O)Nc3c(C)cccc3Cl)s2)cc(N2CCN(CCO)CC2)n1 | class 0
CN(C)CCOc1ccc(-c2nc(-c3ccncc3)c(-c3ccc4c(c3)CC/C4=N/O)[nH]2)cc1 + Cc1nc(Nc2ncc(C(=O)Nc3c(C)cccc3Cl)s2)cc(N2CCN(CCO)CC2)n1 | class 0
O=C(Cc1ccc(-c2ccc(OCCN3CCOCC3)cc2)cn1)NCc1ccccc1 [KX2-391] + Cc1nc(Nc2ncc(C(=O)Nc3c(C)cccc3Cl)s2)cc(N2CCN(CCO)CC2)n1 | class 0
CN(C)Cc1cccc(N/C(=C2\C(=O)Nc3cc(C(=O)N(C)C)ccc32)c2ccccc2)c1 + Cc1nc(Nc2ncc(C(=O)Nc3c(C)cccc3Cl)s2)cc(N2CCN(CCO)CC2)n1 | class 0
Nc1ccc(-c2ccc3ncc4ccc(=O)n(-c5cccc(C(F)(F)F)c5)c4c3c2)cn1 [Torin 2] + Cc1nc(Nc2ncc(C(=O)Nc3c(C)cccc3Cl)s2)cc(N2CCN(CCO)CC2)n1 | class 1

----------
- System: A498
- PROTOCOL_NOTES: AUC of dose-response viability curve, drug + dasatinib, normalised to DMSO (arbitrary (AUC of normalised viability)); higher = less growth inhibition
- CONDITIONS: treatment: drug + dasatinib (fixed dose, not stated); 5 days

COMPOUND | TGT | AUC of dose-response viability curve
C=CC(=O)Nc1cccc(Sc2nc(Nc3ccc(N4CCN(C)CC4)cc3)ncc2Cl)c1 [WZ8040] + Cc1nc(Nc2ncc(C(=O)Nc3c(C)cccc3Cl)s2)cc(N2CCN(CCO)CC2)n1 | A498 | 3.23
O=C(Nc1cccc(Nc2ncc(Br)c(NCCc3cnc[nH]3)n2)c1)N1CCCC1 [BX-912] + Cc1nc(Nc2ncc(C(=O)Nc3c(C)cccc3Cl)s2)cc(N2CCN(CCO)CC2)n1 | A498 | 2.97
NC(=O)c1ccc(-c2nc(-c3ccc4c(c3)OCO4)c(-c3ccccn3)[nH]2)cc1 + Cc1nc(Nc2ncc(C(=O)Nc3c(C)cccc3Cl)s2)cc(N2CCN(CCO)CC2)n1 | A498 | 3.17
COc1cc2ncnc(Nc3ccc(O)c(Br)c3)c2cc1OC [WHI-P154] + Cc1nc(Nc2ncc(C(=O)Nc3c(C)cccc3Cl)s2)cc(N2CCN(CCO)CC2)n1 | A498 | 3.93
CCC(=O)N1CCN(c2ccc(-n3c(=O)ccc4cnc5ccc(-c6cnc7ccccc7c6)cc5c43)cc2C(F)(F)F)CC1 [Torin 1] + Cc1nc(Nc2ncc(C(=O)Nc3c(C)cccc3Cl)s2)cc(N2CCN(CCO)CC2)n1 | A498 | 1.53
CC(C)(C)c1cc(/C=C(\C#N)C(N)=S)cc(C(C)(C)C)c1O [Tyrphostin AG 879 (AG 879)] + Cc1nc(Nc2ncc(C(=O)Nc3c(C)cccc3Cl)s2)cc(N2CCN(CCO)CC2)n1 | A498 | 3.69
N#CC[C@H](C1CCCC1)n1cc(-c2ncnc3[nH]ccc23)cn1 + Cc1nc(Nc2ncc(C(=O)Nc3c(C)cccc3Cl)s2)cc(N2CCN(CCO)CC2)n1 | A498 | 3.44
O=C(Nc1ccc(OC(F)(F)F)cc1)c1sccc1NCc1ccnc2ccccc12 [OSI-930] + Cc1nc(Nc2ncc(C(=O)Nc3c(C)cccc3Cl)s2)cc(N2CCN(CCO)CC2)n1 | A498 | 3.69
COc1ccc2c(Oc3ccc(NC(=O)c4c(C)n(CC(C)(C)O)n(-c5ccccc5)c4=O)nc3)ccnc2c1 [AMG458] + Cc1nc(Nc2ncc(C(=O)Nc3c(C)cccc3Cl)s2)cc(N2CCN(CCO)CC2)n1 | A498 | 3.38

----------
- System: 769-P
- PROTOCOL_NOTES: AUC of dose-response viability curve, drug + dasatinib, normalised to DMSO (arbitrary (AUC of normalised viability)); higher = less growth inhibition
- CONDITIONS: treatment: drug + dasatinib (fixed dose, not stated); 5 days
Could you please mark True for values of AUC of dose-response viability curve below 2 and False for values at or above it?

MOLECULE | ASSIGNED_LABEL
CCn1c(-c2nonc2N)nc2c(C#CC(C)(C)O)ncc(OC[C@H]3CCCNC3)c21 + Cc1nc(Nc2ncc(C(=O)Nc3c(C)cccc3Cl)s2)cc(N2CCN(CCO)CC2)n1 [dasatinib] | False
Cc1cc(C(=O)NOCCO)c(Nc2ccc(I)cc2F)n(C)c1=O [AZD8330] + Cc1nc(Nc2ncc(C(=O)Nc3c(C)cccc3Cl)s2)cc(N2CCN(CCO)CC2)n1 [dasatinib] | True
CC[C@H](CO)Nc1nc(NCc2ccccc2)c2ncn(C(C)C)c2n1 [Roscovitine (Seliciclib, CYC202)] + Cc1nc(Nc2ncc(C(=O)Nc3c(C)cccc3Cl)s2)cc(N2CCN(CCO)CC2)n1 [dasatinib] | False
Cl.N=C(N)NC(=N)NCCc1ccccc1 [Phenformin hydrochloride] + Cc1nc(Nc2ncc(C(=O)Nc3c(C)cccc3Cl)s2)cc(N2CCN(CCO)CC2)n1 [dasatinib] | False
CS(=O)(=O)O.O=C(Nc1cccc(Cl)c1)Nc1ncc(CCNc2ncnc3ccsc23)s1 [SNS-314] + Cc1nc(Nc2ncc(C(=O)Nc3c(C)cccc3Cl)s2)cc(N2CCN(CCO)CC2)n1 [dasatinib] | True
CN1CCN(CCOc2cc(OC3CCOCC3)c3c(Nc4c(Cl)ccc5c4OCO5)ncnc3c2)CC1 [Saracatinib (AZD0530)] + Cc1nc(Nc2ncc(C(=O)Nc3c(C)cccc3Cl)s2)cc(N2CCN(CCO)CC2)n1 [dasatinib] | True
CNC(=O)c1ccc(-c2cnc3ncc(Cc4ccc5ncccc5c4)n3n2)cc1F + Cc1nc(Nc2ncc(C(=O)Nc3c(C)cccc3Cl)s2)cc(N2CCN(CCO)CC2)n1 [dasatinib] | False
CNC(=O)CN1CCC(Oc2cc3c(Nc4cccc(Cl)c4F)ncnc3cc2OC)CC1 [AZD8931] + Cc1nc(Nc2ncc(C(=O)Nc3c(C)cccc3Cl)s2)cc(N2CCN(CCO)CC2)n1 [dasatinib] | True

----------
We begin with a simple list: items and their reported AUC of dose-response viability curve.
- Test system: A498
- PROTOCOL_NOTES: AUC of dose-response viability curve, drug alone (arbitrary (AUC of normalised viability)); higher = less growth inhibition
- CONDITIONS: treatment: drug alone; 5 days
VALUE_TYPE: AUC of dose-response viability curve

COMPOUND | VALUE_TYPE | VAL
CS(=O)(=O)CCNCc1ccc(-c2ccc3ncnc(Nc4ccc(OCc5cccc(F)c5)c(Cl)c4)c3c2)o1.Cc1ccc(S(=O)(=O)O)cc1.Cc1ccc(S(=O)(=O)O)cc1 [Lapatinib Ditosylate (Tykerb)] | AUC of dose-response viability curve | 3.99
FC(F)c1nc2ccccc2n1-c1nc(N2CCOCC2)nc(N2CCOCC2)n1 | AUC of dose-response viability curve | 2.84
CN[C@@H]1C[C@H]2O[C@@](C)([C@@H]1OC)n1c3ccccc3c3c4c(c5c6ccccc6n2c5c31)C(=O)NC4 | AUC of dose-response viability curve | 1.56
CN(C[C@@H]1COCCO1)S(=O)(=O)Nc1ccc2ccc3ncc(-c4cnn(C)c4)cc3c(=O)c2c1 | AUC of dose-response viability curve | 7.41
C[C@@H]1CCN(C(=O)CC#N)C[C@@H]1N(C)c1ncnc2[nH]ccc12 | AUC of dose-response viability curve | 3.8
O=C1NC(=O)C(=Cc2ccc(-c3ccc(F)cc3)o2)S1 (stereo in doubt) | AUC of dose-response viability curve | 3.71
CN(C)C/C=C/C(=O)Nc1cc2c(Nc3ccc(F)c(Cl)c3)ncnc2cc1O[C@H]1CCOC1 | AUC of dose-response viability curve | 2.87

----------
- Tested on: UO-31
- PROTOCOL_NOTES: AUC of dose-response viability curve, drug + dasatinib, normalised to DMSO (arbitrary (AUC of normalised viability)); higher = less growth inhibition
- CONDITIONS: treatment: drug + dasatinib (fixed dose, not stated); 5 days
Could you please mark 1 for values of AUC of dose-response viability curve below 3 and -1 for values at or above it?

COMPOUND | TGT | ASSIGNED_LABEL
CCN(CC)CCNC(=O)c1c(C)[nH]c(/C=C2\C(=O)Nc3ccc(F)cc32)c1C.O=C(O)C[C@H](O)C(=O)O [Sunitinib Malate (Sutent)] + Cc1nc(Nc2ncc(C(=O)Nc3c(C)cccc3Cl)s2)cc(N2CCN(CCO)CC2)n1 [dasatinib] | UO-31 | 1
Nc1ccc(-c2ccc3ncc4ccc(=O)n(-c5cccc(C(F)(F)F)c5)c4c3c2)cn1 [Torin 2] + Cc1nc(Nc2ncc(C(=O)Nc3c(C)cccc3Cl)s2)cc(N2CCN(CCO)CC2)n1 [dasatinib] | UO-31 | 1
COCC(=O)NC/C=C/c1ccc2ncnc(Nc3ccc(Oc4ccc(C)nc4)c(C)c3)c2c1 + Cc1nc(Nc2ncc(C(=O)Nc3c(C)cccc3Cl)s2)cc(N2CCN(CCO)CC2)n1 [dasatinib] | UO-31 | -1
Cn1cc(-c2ccc3ncc(Cc4ccc5ncccc5c4)n3n2)cn1 [NVP-BVU972] + Cc1nc(Nc2ncc(C(=O)Nc3c(C)cccc3Cl)s2)cc(N2CCN(CCO)CC2)n1 [dasatinib] | UO-31 | -1
Cn1c(=O)c(F)c(Nc2ccc(I)cc2F)c2c(=O)n(C[C@@H](O)CO)cnc21 [TAK-733] + Cc1nc(Nc2ncc(C(=O)Nc3c(C)cccc3Cl)s2)cc(N2CCN(CCO)CC2)n1 [dasatinib] | UO-31 | 1
COc1cc2c(Oc3ccc(NC(=O)C4(C(=O)Nc5ccc(F)cc5)CC4)cc3F)ccnc2cc1OCCCN1CCOCC1 + Cc1nc(Nc2ncc(C(=O)Nc3c(C)cccc3Cl)s2)cc(N2CCN(CCO)CC2)n1 [dasatinib] | UO-31 | 1
COc1ccc(-c2cc3c(C)nc(N)nc3n([C@H]3CC[C@H](OCCO)CC3)c2=O)cn1 + Cc1nc(Nc2ncc(C(=O)Nc3c(C)cccc3Cl)s2)cc(N2CCN(CCO)CC2)n1 [dasatinib] | UO-31 | 1
Cc1csc(-c2nnc(Nc3ccc(Oc4ncccc4-c4ccnc(N)n4)cc3)c3ccccc23)c1 [AMG 900] + Cc1nc(Nc2ncc(C(=O)Nc3c(C)cccc3Cl)s2)cc(N2CCN(CCO)CC2)n1 [dasatinib] | UO-31 | -1
Nc1nccc(Oc2ccc(NC(=O)c3c[nH]cc(-c4ccc(F)cc4)c3=O)cc2F)c1Cl + Cc1nc(Nc2ncc(C(=O)Nc3c(C)cccc3Cl)s2)cc(N2CCN(CCO)CC2)n1 [dasatinib] | UO-31 | -1
Cn1cnc(N)c2ncnc1-2 [3-Methyladenine] + Cc1nc(Nc2ncc(C(=O)Nc3c(C)cccc3Cl)s2)cc(N2CCN(CCO)CC2)n1 [dasatinib] | UO-31 | -1
Cc1[nH]c(/C=C2\C(=O)Nc3ccccc32)c(C)c1CCC(=O)O [TSU-68] + Cc1nc(Nc2ncc(C(=O)Nc3c(C)cccc3Cl)s2)cc(N2CCN(CCO)CC2)n1 [dasatinib] | UO-31 | 1
CCN(CC)CCCCNc1ncc2cc(-c3cc(OC)cc(OC)c3)c(NC(=O)NC(C)(C)C)nc2n1 + Cc1nc(Nc2ncc(C(=O)Nc3c(C)cccc3Cl)s2)cc(N2CCN(CCO)CC2)n1 [dasatinib] | UO-31 | 1
C[C@@H]1CCN(C(=O)CC#N)C[C@@H]1N(C)c1ncnc2[nH]ccc12 + Cc1nc(Nc2ncc(C(=O)Nc3c(C)cccc3Cl)s2)cc(N2CCN(CCO)CC2)n1 [dasatinib] | UO-31 | -1
O=C(Nc1c[nH]nc1-c1nc2cc(CN3CCOCC3)ccc2[nH]1)NC1CC1 [AT9283] + Cc1nc(Nc2ncc(C(=O)Nc3c(C)cccc3Cl)s2)cc(N2CCN(CCO)CC2)n1 [dasatinib] | UO-31 | 1
CC(C)n1nc(-c2cc3cc(O)ccc3[nH]2)c2c(N)ncnc21 [PP242] + Cc1nc(Nc2ncc(C(=O)Nc3c(C)cccc3Cl)s2)cc(N2CCN(CCO)CC2)n1 [dasatinib] | UO-31 | 1
Cc1nc(Nc2ncc(C(=O)Nc3c(C)cccc3Cl)s2)cc(N2CCN(CCO)CC2)n1 + Cc1nc(Nc2ncc(C(=O)Nc3c(C)cccc3Cl)s2)cc(N2CCN(CCO)CC2)n1 [dasatinib] | UO-31 | 1
c1ccc2c(CCNc3ccc(Nc4ccncc4)cc3)c[nH]c2c1 + Cc1nc(Nc2ncc(C(=O)Nc3c(C)cccc3Cl)s2)cc(N2CCN(CCO)CC2)n1 [dasatinib] | UO-31 | 1
CC(C)c1cnn2c(NCc3ccccc3)cc(NCCCCCCN)nc12.Cl [BS-181 HCl] + Cc1nc(Nc2ncc(C(=O)Nc3c(C)cccc3Cl)s2)cc(N2CCN(CCO)CC2)n1 [dasatinib] | UO-31 | -1
Cc1nc(N)sc1-c1ccnc(Nc2ccc(N3CCOCC3)cc2)n1 [CYC116] + Cc1nc(Nc2ncc(C(=O)Nc3c(C)cccc3Cl)s2)cc(N2CCN(CCO)CC2)n1 [dasatinib] | UO-31 | 1
